target: human TLR9 (Homo sapiens, UniProt Q9NR96); assay: TLR9 inhibition reporter assay (HEK-Blue cells, SEAP reporter); settings: HEK-Blue cells overexpressing human TLR9; stimulated with ODN2006 5 nM; 22 hour incubation; SEAP readout
Sequence (Q9NR96 26-1032): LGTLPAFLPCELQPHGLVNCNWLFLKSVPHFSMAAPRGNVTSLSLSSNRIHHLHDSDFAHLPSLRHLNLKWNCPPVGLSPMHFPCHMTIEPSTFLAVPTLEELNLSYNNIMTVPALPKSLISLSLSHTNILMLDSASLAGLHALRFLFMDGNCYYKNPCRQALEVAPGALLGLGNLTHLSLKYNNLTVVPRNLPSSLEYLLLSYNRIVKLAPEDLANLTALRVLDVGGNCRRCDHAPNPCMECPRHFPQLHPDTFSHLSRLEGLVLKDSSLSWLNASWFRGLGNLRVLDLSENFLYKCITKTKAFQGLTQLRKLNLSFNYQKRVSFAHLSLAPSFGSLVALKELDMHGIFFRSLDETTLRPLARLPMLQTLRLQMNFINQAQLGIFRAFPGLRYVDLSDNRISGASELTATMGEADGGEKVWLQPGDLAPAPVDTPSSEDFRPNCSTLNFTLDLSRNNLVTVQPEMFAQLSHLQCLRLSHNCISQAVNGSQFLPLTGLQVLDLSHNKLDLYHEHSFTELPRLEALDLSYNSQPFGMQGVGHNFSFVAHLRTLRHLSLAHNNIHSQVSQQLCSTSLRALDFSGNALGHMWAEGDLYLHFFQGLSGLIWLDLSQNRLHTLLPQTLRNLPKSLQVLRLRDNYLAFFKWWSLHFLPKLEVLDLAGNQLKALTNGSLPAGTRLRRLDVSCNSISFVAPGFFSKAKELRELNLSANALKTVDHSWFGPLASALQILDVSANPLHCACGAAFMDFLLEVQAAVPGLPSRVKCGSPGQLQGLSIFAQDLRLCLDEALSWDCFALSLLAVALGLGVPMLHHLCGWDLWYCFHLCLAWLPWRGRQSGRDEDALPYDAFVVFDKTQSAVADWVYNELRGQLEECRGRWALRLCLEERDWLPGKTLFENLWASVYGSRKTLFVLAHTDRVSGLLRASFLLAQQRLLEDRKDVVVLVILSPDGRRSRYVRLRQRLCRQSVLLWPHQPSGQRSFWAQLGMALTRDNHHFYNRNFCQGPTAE
OBSERVATION TYPE: pIC50
Answers are plain numbers, as −log10 of the molar value.

Worked cases, answers included:
COc1ccc(-c2nc3n(n2)CC(c2ccc(N4CCN(C(C)C)CC4)cc2)CC3C)cc1OC (stereo not shown)    5.84
COc1ccc(-c2cn3cc(C4CC5CCC(C4)N5C4CCN(CC(C)C)CC4)cc(C)c3n2)cc1OC (single isomer, unassigned) [Example 28]    8.10
COc1ccc(-c2cn3cc(C4CCN(C5CC6(C5)CN(C5CC5)C6)CC4)cc(C)c3n2)cc1OC    7.66
CC(C)CN1CCC(N2CCC(c3cn4cc(-c5ccc(S(C)(=O)=O)cc5)nc4cc3F)CC2)CC1    6.30
CS(=O)(=O)c1ccc(-c2cn3cc(C4CCN(C5CCCN(CC6CC6)CC5)CC4)cc(F)c3n2)cc1 (single isomer, unassigned) [Example 128]    8.08
COc1ccc(-c2cn3cc(C4C[C@H]5CC[C@@H](C4)N5C4CCN(C(C)C)CC4)cc(C)c3n2)cc1OC (mixture of isomers)    7.43

List the reported pIC50 of each compound below.
1. COc1ccc(-c2cn3c(n2)CCC(C2CCN(C4CCN(C5CC5)CC4)CC2)C3)cc1OC (single isomer, unassigned) [Example 38]
2. Cc1cc(-c2ccc(N3CCN(CC4CC4)CC3)cc2)cn2cc(-c3ccc(S(C)(=O)=O)cc3)nc12
3. COc1ccc(-c2nc3ccc(C4CC5CCC(C4)N5C4CCN(C(C)C)CC4)cn3n2)cc1OC (stereo not shown)
4. CS(=O)(=O)c1ccc(-c2cn3cc(C4CCN(C5CC6CCC(C5)N6C5CCOCC5)CC4)cc(F)c3n2)cc1 (single isomer, unassigned) [Example 121]
5. Cc1cc(C2CCN(C3CC4CCC(C3)N4CC(C)C)CC2)cn2cc(-c3ccc(S(C)(=O)=O)cc3)nc12 (single isomer, unassigned) [Example 85]
6. COc1ccc(-c2nc3ccc(C4CCN(C5CCN(C(C)C)CC5)CC4)cn3n2)cc1OC

1: 7.35; 2: 6.48; 3: 6.66; 4: 7.96; 5: 7.57; 6: 6.95

Here CS(=O)(=O)c1ccc(-c2cn3cc(C4CCN(C5CC6CCC(C5)N6C5CCC5)CC4)cc(F)c3n2)cc1 (single isomer, unassigned) [Example 118] was tested on human TLR9 (Homo sapiens, UniProt Q9NR96), and its pIC50 came to 7.68

Origin of measurements: patent US12486267B2
